- Tested on: RARg:RXRa (NR concentration 270 nM, RXRa partner concentration 90 nM)
- assay_summary: PBM binding z-score (relative to random genomic background probes); higher = stronger binding; sequences stand for … in GC…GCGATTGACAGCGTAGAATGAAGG
Would you mind labelling by PBM binding z-score? At or over 0.8 is YES, under is NO.

Consider the following illustrative entries.
GTACCATGGTGAATAGGTCGTTGATGAGTAGGCG :: NO
ATCGAAGGGTCGAGGTGAGTATAGAGAAAGGGAA :: YES
ATATGTAGGTTAAGGCTCATTCAGGTTGGTTCGC :: NO
TCTTGTAGATCAATAGAGGTTAAGTAAGTGCGCT :: YES
CCAGACAGGTGAAAGTTAACTCAGTCTGGTACGC :: NO
TCTCGGAGGACACGATGGTCAGAGCTTTCCAGAG :: NO
TCATATAGGTAAATGCTAGTTGAAAGTCCGATCT :: NO
AGTCAAAGTTCATCTAAGTAACGTAAGATATGCT :: YES

Query string: Determine whether measured PBM binding z-score meets or exceeds 0.8 for `TCATTTAGGTAAATGCTAGGTGAAAGTCCGATCT`
Result string: NO

Query string: Check if PBM binding z-score >= 0.8 (inclusive). Item: `TCATATAGGTAAAGGTGAAAGGCGAACGATATGA`
Result string: YES

Query string: Hi, just wondering whether `CCTACTGGGCCAAAAAGGTCATTGTTGCCGATAA` shows PBM binding z-score of 0.8 or higher.
Result string: YES

Query string: Textbook exercise: given the entry `GCTGGCAGGCCATTTGGGTCACTCAATGACGGGC` , state whether its PBM binding z-score is greater than or equal to 0.8.
Result string: YES

Query string: Exam item: decide whether the reported PBM binding z-score for `TCTCGGAGGACACGAATGTCAGAGCTTTCCAGAG` is at least 0.8.
Result string: NO

Query string: Item `CCTCCGAGGACAGAAGGTCAGAGCTGTCCGCTTT` with PBM binding z-score of 0.8 or above?
Result string: YES

Query string: Entry `TGGCCTAGGTCATTGGGCCAGTATAGTACGCATC` : is its PBM binding z-score no less than 0.8?
Result string: YES

Query string: State whether the measured PBM binding z-score reaches 0.8, counting equality as reaching it, for `CCTAGTTGGTCAAGGTCACCCACGCTATAGGTAC`
Result string: YES

Query string: Form field: PBM binding z-score at least 0.8? Entry: `CCTACTGGGCCATCAGGTCATTGACATCAACGTT`
Result string: YES

Query string: Is it the case that `GCTTACGAGTCAAAGGTTATAGCATGAATAGAAT` has PBM binding z-score reaching or exceeding 0.8?
Result string: YES

Query string: Dear colleague, could you confirm whether `ATACCAAGGTGATCGTGGGGTCGTTGATACTAAC` has PBM binding z-score at or above 0.8?
Result string: YES

Query string: Please check the record `CAGCCTAGATCAGGGCCAGTATAGGAGGAACGTT` and state if its PBM binding z-score is at or above 0.8.
Result string: NO

---

- System: LXRa:RXRa (NR concentration 270 nM, RXRa partner concentration 90 nM)
- assay_summary: PBM binding z-score (relative to random genomic background probes); higher = stronger binding; sequences stand for … in GC…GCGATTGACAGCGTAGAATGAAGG
readout_label: PBM binding z-score
The answer should be a number; do not append a unit.

Below are worked cases with known answers.
ATATGTAGGTTACATCCGGGTCATTCAGGCTATG :: 4.27
CGAACTAGGTCAAAGGTCAAAGTCGAGCCAACCA :: 7.41
TCTAGCAGGCCAGAGGGTCACTCACGAGGTACGG :: 0.658

Query string: Output PBM binding z-score of `CCGACTGAGGCAAAGGTTACCATACTCAGTACGA`
Result string: 1.19

Query string: Complete the entry with PBM binding z-score for `AATACAGGGTCACAAGGCCAGAGTAGGTACGAAT`
Result string: 5.61

Query string: Return reported PBM binding z-score. Input sequence: `TCATATACGTAAATGCTAGGTGAAAGTCCGATCT`
Result string: 0.449

---

The following sequences are listed with their measured PBM binding z-score values.
- Test system: LXRa homodimer (NR concentration 270 nM)
- assay_summary: PBM binding z-score (relative to random genomic background probes); higher = stronger binding; sequences stand for … in GC…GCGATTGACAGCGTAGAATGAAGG
Give your answer as a number; write no unit.

AGTCAAAGTTCAAGACGAGGTAACGTAAAGCACG :: 2.72
ACTAGCAGGCCAAGGGTCACTCTAGATTAGTCCG :: 0.239
CCAACGAGGGCATGAGTTGATAGCAAATGCCGAT :: -0.411
GGAACGAGGGCAAGTTGATAGCAGAGTTTGATGG :: -0.269
ATCTCTAGGTAACAAGTTCAGTGTAAGAGAGGAC :: 0.835
CCAGACAGGTAAAAGGTAACTCAGTCTGGTACGC :: -0.25
ACTAGTTGGTCAGCTGAGGTCACACAGAATTCGG :: 2.31
CCAGACGGGTGAAAGGTAACTCAGTCTGGTACGC :: -0.5
TAGCCTAGGTCAGGTCGGGCCAGTATACGCTATA :: -0.52
GATACAGGGTCAAGGCCAGACTACGCGTATTGAT :: 0.21

Query string: Identify the reported PBM binding z-score for the following entry. `CCGAGGAGGTTATGGGGCATTCAGGCAACGGTGA`
Result string: 0.15

Query string: Supply measured PBM binding z-score of `GTTGCTAGGTCAGGTTGGTCAGCTAACGGGTACG` in your reply.
Result string: 0.459

---

The sequences listed here are annotated with their PBM binding z-score.
- Tested on: THRa homodimer (NR concentration 90 nM)
- assay_summary: PBM binding z-score (relative to random genomic background probes); higher = stronger binding; sequences stand for … in GC…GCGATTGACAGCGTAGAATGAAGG
Form: value (number only, do not type unit).

TCTTGTAGATCGGCAGGTTAAGAAAGCTGGCCAA :: -0.309
GCTACTAGTTGAAAGGGCAACCGAATGATTCTCG :: -0.134
CGTCCAAGGTCAAGGACAGTGAAAGAGACTCGAA :: 2.83

Query string: Please report PBM binding z-score for the following sequence: `ACTATTAGTTGAGACAAGGGCAACCGATAGGTTG`
Result string: -0.191

Query string: Find the measured PBM binding z-score of `CTCGAAAGGTCGGTTGAAGTGAGTATACGGATAA` and report it.
Result string: 0.13

Query string: Return value of PBM binding z-score for input `TGAATGAGGTTAAAGATCTGGGAACGTGGCGTCG` , no commentary.
Result string: 0.597

Query string: Answer with reported PBM binding z-score of `ATCTCTAGGTAAAGATAGTTCAGTGAGTGCAAAT`
Result string: 0.522

Query string: Answer with the recorded PBM binding z-score for the sequence listed here: `CGAACGAGGGCATGGGTTGATAGCAAATGCCGAT`
Result string: 0.384

---

- Tested on: RXRa homodimer (NR concentration 180 nM)
- assay_summary: PBM binding z-score (relative to random genomic background probes); higher = stronger binding; sequences stand for … in GC…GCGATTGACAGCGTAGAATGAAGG
Items are presented alongside their recorded PBM binding z-score.

Use these answered entries as a reference point.
CCTCGGAGGACAGAAGGTCAGAACTGTCCGCTTT :: 1.43
AGAATGAGGTTATACGTAGATCAGGGATGAAAGT :: 2.47

Query string: Report PBM binding z-score, nothing else, for this sequence: `CAGACTAGGTCAAGAGGTCAAAGTCCGCTTCCCG`
Result string: 7.71

Query string: Give the value of PBM binding z-score reported for the following: `TCATATAGGTAAAGGGTGAAAGTCGGTGTGGTAA`
Result string: 2.24

Query string: Fill in PBM binding z-score for record `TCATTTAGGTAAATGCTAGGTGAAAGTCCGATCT`
Result string: 0.519

Query string: Entry `TTACCAAGATGAAGGTCGTTGATCCCTCTGTAGA` needs its PBM binding z-score filled in; supply it.
Result string: 0.993

---

- Tested on: RARg:RXRa (NR concentration 270 nM, RXRa partner concentration 90 nM)
- assay_summary: PBM binding z-score (relative to random genomic background probes); higher = stronger binding; sequences stand for … in GC…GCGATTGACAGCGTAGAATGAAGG
This section presents sequences with their documented PBM binding z-score values.
Answer as a number with no unit attached.

The examples below pair each entry with its known result.
CCGACTGGGGGAAAGGTTACCATACTCAGTACGA :: 2.79
TCGGCTAGGTCAGTTGGTCAGCTAACGAGCTGCC :: 2.88
TCTAGTAGATCAACAGGAGGTTAAGAAAGATCGA :: 0.662
GCTTACGGGTCTAAGGTTATAGCATGAATAGAAT :: 0.869
CCTCGGAGGGCAACAGGAGGTCAGAGCTGCCAGA :: 5.71

Query string: Complete the entry with PBM binding z-score for `ACAGACAGGTGATGAAGGGAACTCAGGCTATCAT`
Result string: 0.231

Query string: Entry `CGTCCAGGGTCAGAGAGGTCAGTGAATGCCGAGT` needs its PBM binding z-score filled in; supply it.
Result string: 6.18

Query string: Consider the sequence `GCTGCTAGGTCAACTTATGGTCAGCTAAAGCTCG` . State its measured PBM binding z-score.
Result string: 5.26

Query string: Read off the recorded PBM binding z-score for `CCTTACCGGTCACTCCAGGTTATAGCATCGGAGT`
Result string: 2.41

Query string: Consider the sequence `ACAGACAGGTTAGTGAAGGTAACTCAGCTGGACG` and give its recorded PBM binding z-score.
Result string: 0.363

Query string: Give reported PBM binding z-score value for `ATTCCAAGGTGATCGTGAGGTCGTTGATACTAAC`
Result string: 2.23

Query string: Look up PBM binding z-score of `GCTGCTAGGCCAACTGATGGTCAGCTAAAGCTCG` and report it.
Result string: 0.0424

Query string: Consider the sequence `CCGCCTGGGGCAAGGTTACCATAACGCACAGCCA` and give its recorded PBM binding z-score.
Result string: 1.06

Query string: Entry `AGTCAAAGTTCATCTAGGTAACCTAAGATATGCT` needs its PBM binding z-score filled in; supply it.
Result string: 5.61

The measured values listed here are drawn from the supplement of paper PMC6555819.
